This collection of values is drawn from patent US20050074840A1.

Consider the following binders and their measured kon readings.
tested_on: T1, human TNF-alpha (hTNF-alpha) (human, UniProt P01375 77-233)
T1 construct: also called biotinylated hTNF-; [125I]TNF-
measurement_notes: SPR (BIAcore), TNFrED captured on BAF225 anti-TNFrED surface, TNF-alpha injected at 1-100 nM, global 1:1 fit
# value in M⁻¹ s⁻¹; strip the unit string

Recorded kon for TNFrED H34P+S57I+S87P (receptor, Secreted from HEK293-EBNA cells, conditioned medium; also called H34P + S87P + S571) DSVCPQGKYIHPQNNSICCTKCPKGTYLYNDCPGPGQDTDCRECEIGSFTASENHLRHCLSCSKCRKEMGQVEISPCTVDRDTVCGCRKNQYRHYWSENLFQCFNCSLCLNGTVHLSCQEKQNTVCTCHAGFFLRENECVSCSNCKKSLECTKLCLPQIEN , please? 1.8e+06

Also TNFrED H34P+S57I (receptor, Secreted from HEK293-EBNA cells, conditioned medium; also called H34P + S571) DSVCPQGKYIHPQNNSICCTKCPKGTYLYNDCPGPGQDTDCRECEIGSFTASENHLRHCLSCSKCRKEMGQVEISSCTVDRDTVCGCRKNQYRHYWSENLFQCFNCSLCLNGTVHLSCQEKQNTVCTCHAGFFLRENECVSCSNCKKSLECTKLCLPQIEN ? 1.9e+06

Also TNFrED H34P (receptor, Secreted from HEK293-EBNA cells, conditioned medium) DSVCPQGKYIHPQNNSICCTKCPKGTYLYNDCPGPGQDTDCRECESGSFTASENHLRHCLSCSKCRKEMGQVEISSCTVDRDTVCGCRKNQYRHYWSENLFQCFNCSLCLNGTVHLSCQEKQNTVCTCHAGFFLRENECVSCSNCKKSLECTKLCLPQIEN ? 1.9e+06
